I'd be grateful if you could share measured binding signal for these entries.
ASSAYED TARGET: MaxL homodimer (Homo sapiens, UniProt P61244 1-160)
Sequence (P61244 whole entry): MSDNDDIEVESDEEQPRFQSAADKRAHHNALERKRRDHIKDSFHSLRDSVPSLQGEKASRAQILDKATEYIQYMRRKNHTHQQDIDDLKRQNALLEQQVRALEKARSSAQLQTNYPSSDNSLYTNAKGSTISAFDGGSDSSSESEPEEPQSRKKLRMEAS
TEST METHOD NOTES: universal protein-binding microarray (PBM); PBS-based mixture, 10 nM His-tagged protein dimer, 2% milk, 200 ng/uL BSA, 50 ng/uL salmon testes DNA, 0.02% TX-100; detection with Alexa 488 anti-His antibody;; high values mean tight binding;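 note: fluorescence intensity normalized to that of the highest-ranked 8-mer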
REPORTED CONDITIONS: protein: recombinant; tags: C-terminal His-tag (pET21a); chain copies: 2; dsDNA, one strand shown
Over roughly 33,000 sequences, “normalized occupancy” has its median near 0.075; the highest 2% begin near 0.095. The full list was thinned out, with the highest values kept by preference.
Express your answer in normalized occupancy, writing the number without its unit.

Could you share which binding signal value was measured for AGGTGTTA ?
0.0801

Thanks! And ATGTGTTG ?
0.0905

Follow-up item: GACGCGAC
0.0735

Then CATAGGCG ?
0.0751

Same question, AACGCGAA this time
0.0761

And for ACGTGTTC ?
0.104

CTTCCCCA ?
0.0787

Try GACGCGAA next.
0.0735

Now give it for CATGGGAA too.
0.0896

And then CATGGGGC , what is it?
0.0935

Let us now turn to CGCTCACC
0.0763

GCGTGTTA , same question.
0.101

And what about the sequence ACCCACTA ?
0.085

Can you handle AGAGGCAC next?
0.0762

// same read-out, input: CACACCCA
0.0877

Item: ATGCGAGG
0.0841

Check ATGAGGGC too.
0.0956

Check ACAGATCT too.
0.0745

Next sequence: GTGTGTTA
0.0835

Could you do the same for TAATGCTA , please?
0.0758

One more sequence: AAAAAGCA
0.078

What do you have for CAGGGGGA ?
0.0851

Also AGTAGGAT ?
0.076

Quick one: CACGCGAG
0.111

Quick one: AGCGTCGC
0.0721

Record: ATGAGGGG
0.0902

Also need ATGTCAAT , thanks.
0.0778

Also AGGCAGTA ?
0.0728

Next sequence up: ATGAGGGA
0.0908

Follow-up entry: AACGCTTC
0.0768

Now consider AATGGGGA .
0.0809

Next sequence: CACGCTTA
0.103

What do you have for AATACACG ?
0.0912

AACGCGAG ?
0.0764

What about this sequence? ACGTGTTG
0.109

Repeat with AACGCTTA
0.0733

// repeat for CGCGCTTC and report
0.0753

Next up: AATGGGGG
0.0803

====

ASSAYED TARGET: MaxL homodimer (Homo sapiens, UniProt P61244 1-160)
TEST METHOD NOTES: universal protein-binding microarray (PBM); PBS-based mixture, 10 nM His-tagged protein dimer, 2% milk, 200 ng/uL BSA, 50 ng/uL salmon testes DNA, 0.02% TX-100; detection with Alexa 488 anti-His antibody;; high values mean tight binding;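 note: fluorescence intensity normalized to that of the highest-ranked 8-mer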
REPORTED CONDITIONS: protein: recombinant; tags: C-terminal His-tag (pET21a); chain copies: 2; dsDNA, one strand shown
The full ranking holds about 33,000 sequences; the median of “normalized occupancy” is about 0.075, and the highest 2% start at about 0.095. The sample as a whole holds a higher share of the highest values than the screen did.
MEASURED QUANTITY: binding signal (normalized occupancy)
Answer in normalized occupancy, number only, no unit symbol.

Which value of binding signal has been reported for TCCACGCA in the records?
0.0885

Please give the result for GGTTTGTA too.
0.0749

Now the sequence CCGTGATA
0.0782

Please give the result for AGAGCCGA too.
0.0723

One more sequence: GCCACGCA
0.0915

Record: ACCACGTA
0.0816

Another sequence to check: ACCACGTC
0.0945

One more sequence: GGCTATCA
0.0738

Can you check ACCGTGAC next?
0.0781

Another: CGAAAGCA
0.0741

Try GCATGCAA next.
0.0988

Try this sequence next: GCGTGATA
0.1

Continue with GCATGCAC
0.11

One more sequence: ACCAAGCA
0.081

Repeat for the following sequence: TCATGCAA
0.0829

Try this sequence next: GAATGCAC
0.0772

====

ASSAYED TARGET: MaxL homodimer (Homo sapiens, UniProt P61244 1-160)
TEST METHOD NOTES: universal protein-binding microarray (PBM); PBS-based mixture, 10 nM His-tagged protein dimer, 2% milk, 200 ng/uL BSA, 50 ng/uL salmon testes DNA, 0.02% TX-100; detection with Alexa 488 anti-His antibody;; high values mean tight binding;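 note: fluorescence intensity normalized to that of the highest-ranked 8-mer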
REPORTED CONDITIONS: protein: recombinant; tags: C-terminal His-tag (pET21a); chain copies: 2; dsDNA, one strand shown
Whole data set: some 33,000 sequences, median “normalized occupancy” near 0.075, cut for the highest 2% near 0.095. For the sample, the highest values were picked, then their nearest neighbours and some sequences at random.
// returns 0 (no) unless binding signal is strictly below 0.08 normalized occupancy, in which case 1 (yes)

In the record for CCATGCTC , is binding signal less than 0.08 normalized occupancy?
0 (no)

Same lookup for AACAACCA , please.
1 (yes)

Check AAACAGTG too.
1 (yes)

AAAGGCAG , same question.
1 (yes)

GACACTTA ?
1 (yes)

Queued: AGTGAAAG
1 (yes)

Entry to check: ACACCACC
0 (no)

And then AGAACGTA , what is it?
1 (yes)

Thanks! And ACACACAC ?
0 (no)

Ok, now AGGAGATG
1 (yes)

Input GACACCCA
1 (yes)

And then ACAACGTG , what is it?
0 (no)

Please answer likewise for ACCACGAT
0 (no)

One more sequence: GGGCATGA
0 (no)

Follow-up entry: CGTCACGA
1 (yes)

How about ACGACGTC ?
1 (yes)

Now consider GAGTTGCC .
1 (yes)

====

ASSAYED TARGET: MaxL homodimer (Homo sapiens, UniProt P61244 1-160)
TEST METHOD NOTES: universal protein-binding microarray (PBM); PBS-based mixture, 10 nM His-tagged protein dimer, 2% milk, 200 ng/uL BSA, 50 ng/uL salmon testes DNA, 0.02% TX-100; detection with Alexa 488 anti-His antibody;; high values mean tight binding;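 note: fluorescence intensity normalized to that of the highest-ranked 8-mer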
REPORTED CONDITIONS: protein: recombinant; tags: C-terminal His-tag (pET21a); chain copies: 2; dsDNA, one strand shown
Over roughly 33,000 sequences, “normalized occupancy” has its median near 0.075; the highest 2% begin near 0.095. The sample holds the highest values, similar sequences and a random draw of the others, so the mix is not that of the screen.
Is binding signal at least 0.08 normalized occupancy? Then label 1. If not, label 0.

Reported binding signal reaches at least 0.08 normalized occupancy for CAGACCCC ?
label 1

Then what about the sequence AATGTGCG ?
label 1

# repeat for ATACAAGG
label 0

Same thing, different sequence: CCGTCATC
label 0

// repeat for GCATGCCA and report
label 1

Queued: CACGTGCG
label 1

Moving on to the next sequence: GATGTACA
label 1

Same read-out for ACCGTGCT ?
label 0

Now give it for AATGTACG too.
label 0

Here is the next sequence: ATAGTCTG
label 0

What do we get for AGTGTTCA ?
label 0

Also need GTGAATAA , thanks.
label 1

Same lookup for GCAATCTA , please.
label 0

Further, for CGTGTTCA ?
label 1

Same for CAACCTAA
label 0

Next sequence up: AATGTATC
label 1

For AATGTGTG then?
label 1

Please do the same for AATGTGTA as well.
label 1

Try AACAGCAC next.
label 0

Also need CCCGTGCG , thanks.
label 1

How about ATTGATAA ?
label 0

// repeat for CCCTAATA and report
label 0

Try this sequence next: AATGTGCA
label 1

// same read-out, input: AAGGTGCT
label 0

# iterate: CAGTCAGG
label 0

Moving on to the next sequence: CACGTGCA
label 1

Another sequence: AGGGAGCA
label 0

Now consider GGTTCTAC .
label 0

Here is the next sequence: AGATGCCA
label 0

Another sequence: ACGGTTAA
label 0

# repeat for AACGTGCC
label 1

// query: GGAGACAA
label 0

And GGTGTTCA ?
label 0

====

ASSAYED TARGET: MaxL homodimer (Homo sapiens, UniProt P61244 1-160)
TEST METHOD NOTES: universal protein-binding microarray (PBM); PBS-based mixture, 10 nM His-tagged protein dimer, 2% milk, 200 ng/uL BSA, 50 ng/uL salmon testes DNA, 0.02% TX-100; detection with Alexa 488 anti-His antibody;; high values mean tight binding;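 note: fluorescence intensity normalized to that of the highest-ranked 8-mer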
REPORTED CONDITIONS: protein: recombinant; tags: C-terminal His-tag (pET21a); chain copies: 2; dsDNA, one strand shown
The full ranking holds about 33,000 sequences; the median of “normalized occupancy” is about 0.075, and the highest 2% start at about 0.095. The sample holds the highest values, similar sequences and a random draw of the others, so the mix is not that of the screen.
Simple rule here: binding signal less than 0.08 normalized occupancy is Fulfilled, otherwise Not fulfilled.

Strictly below 0.08 normalized occupancy: is that where binding signal of ATGCCCTG sits?
Fulfilled

Same question, ACTTGGTA this time
Fulfilled

# iterate: CCATGGTC
Not fulfilled

One more sequence: CACTTCGG
Fulfilled

Query ACATGGTG next
Not fulfilled

Check ACTGCTTC too.
Fulfilled

Another sequence to look at: GTCAGAGA
Fulfilled

What about CAGCGTGG ?
Not fulfilled

Follow-up entry: CACACGAG
Not fulfilled

Repeat with GGCGGTGA
Fulfilled

Another sequence to look at: CTTGGTCC
Fulfilled

Likewise for GGATCGGA ?
Fulfilled

Now consider CAGGTGAC and answer again.
Not fulfilled

Cool, now GCACCAGC
Fulfilled

Repeat for the following sequence: AATCACGA
Not fulfilled

Same lookup for ACGTGTAA , please.
Not fulfilled

Now try CACGCGTG .
Not fulfilled

Subsequent entry: ATCGCGTG
Not fulfilled

Cool, now CTCGAAAA
Fulfilled

Again, but for AACGAGAC
Fulfilled

Can you check CAGCGTGA next?
Not fulfilled

Entry CCGCTAAG please
Fulfilled

Thanks! And CACGAGGG ?
Not fulfilled

Same for GTCACCTA
Fulfilled

Repeat with AATTTCTA
Fulfilled

AGGCGTTA , same question.
Fulfilled

What do you have for CGCCACAA ?
Fulfilled

Would you mind doing AACACGAT as well?
Not fulfilled

Do the same for ATGCTGGC please
Not fulfilled

Then what about the sequence CCCCGCAG ?
Fulfilled

Next record, please: CACACGAC
Not fulfilled

Follow-up item: ACATGGTC
Not fulfilled

// repeat for CCTTAGGC and report
Fulfilled

AATCACGC ?
Not fulfilled

Now try AGAGATTC .
Fulfilled

Now consider CACGAGAA and answer again.
Not fulfilled

Now consider CACGAGGC and answer again.
Not fulfilled

Next up: CACGCAGC
Not fulfilled

// repeat for ACTTACAA and report
Fulfilled

ATTAAGGA ?
Fulfilled

Now this one: AACCCCCC
Not fulfilled

Also, ATCGCGTA please.
Fulfilled

Ok, now CAAGTCGC
Fulfilled

Same question, GGAGAGCA this time
Fulfilled

Input ATCCACGA
Not fulfilled

Record: AGCCACGC
Not fulfilled

Another sequence to look at: AGGTGTAT
Not fulfilled

What about GGTAGTCA ?
Fulfilled

Another: AGTGTTAA
Fulfilled

What about CATCCCCG ?
Fulfilled

What about this sequence? ATCCACGC
Not fulfilled

ACATCAGT , same question.
Fulfilled

What do you get for AGTGGTCG ?
Fulfilled

And what about the sequence CTGAATCC ?
Fulfilled

Let us now turn to CTGACCTC
Fulfilled

Next entry: ACCCCCCA
Not fulfilled

Can you check ACCTAAAT next?
Fulfilled

Also AGCCACGG , if possible.
Fulfilled

// same read-out, input: GGGCTGTA
Fulfilled

Quick one: AACGAGGA
Not fulfilled

Next record, please: GCCACCCC
Not fulfilled

What about this sequence? CAAGCGAA
Fulfilled

// next record CCCACCCA
Not fulfilled

Entry to check: AGTCACGA
Not fulfilled

// same read-out, input: GAGTGTAC
Fulfilled
